Source listed as paper PMC3526519.

Tested Target: L-iLDH (NAD-independent L-lactate dehydrogenase) (Stutzerimonas stutzeri, UniProt I1SLB1, V108A)
Construct: membrane flavoprotein; wild-type prepared as in earlier report
Assay Details: DCIP reduction at […] nm, double-reciprocal plots
Recorded Conditions: competitive versus L-mandelate; 0.0625 mM DCIP, 50 mM Tris-HCl pH 7.5, 30 °C
Recorded Endpoint: Ki
Output should be the measured figure followed by the unit it is expressed in.

Output measured Ki for this item: O=C(O)[C@H](O)c1ccccc1 [D-mandelate]
5.5 mM
